# EXPERIMENTAL TARGET: T1, FNsACP, homolog of ArCPNp from Fischerella
# T1 chain: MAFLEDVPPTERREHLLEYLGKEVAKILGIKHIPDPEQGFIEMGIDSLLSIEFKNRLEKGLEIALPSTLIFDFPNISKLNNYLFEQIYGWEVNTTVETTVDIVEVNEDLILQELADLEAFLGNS
ASSAY READOUT: Km

SPPT, Sfp-like phosphopantetheinyl transferase (PPTase) from Synechocystis sp. PCC6803 (protein) MLPQPQIWLCPTDRPLIPGYQALLSSEEMARGERYQRPQDKQRFLTMRLALRILLARQLDCLPQQLQFTYGPQGKPELVDRERRSPWFNVAHSGNYGLIGLSTEGEIGVDLQIMLPKPHYLKLAKRFFAPQEVQQLESLEGEKRTKLFYQLWTAKEAFLKATGKGISGGLNQVIPDENLAKYQYLPDSGDTNHWRLSSQPLLADQGSNDNYWMAIAWCTNEVNQVESNYLPNIQPFQWPRNLDSLP : 14.1 µM
MPPT, Sfp-like phosphopantetheinyl transferase (PPTase) from Microcystis aeruginosa NIES843 (protein) MFISTDEVHLYFISLDPSGDRLETLASLLSEDEIIRANRYHFPEHKRRFLVARGCLREILGSYLAISPEKIEFIYSERGKPSINYQLQFNLSHSEEMAICGLTLTARIGVDLEKMRQMKDLDSLTKRFFCAREHELVEKSAEKEKLFFQLWTAKEAYLKAVGTGISGGLDRVEVGLNPLKLDNVAGEWQLWTAAIGDNYRATVVIEGSDRVIKTFGLSDL : 8.3 µM

Problem: Which value of Km has been reported for Sfp, phosphopantetheinyl transferase from Bacillus subtilis (protein) MKIYGIYMDRPLSQEENERFMTFISPEKREKCRRFYHKEDAHRTLLGDVLVRSVISRQYQLDKSDIRFSTQEYGKPCIPDLPDAHFNISHSGRWVIGAFDSQPIGIDIEKTKPISLEIAKRFFSKTEYSDLLAKDKDEQTDYFYHLWSMKESFIKQEGKGLSLPLDSFSVRLHQDGQVSIELPDSHSPCYIKTYEVDPGYKMAVCAAHPDFPEDITMVSYEELL in the records?
Solution: 10.9 µM

Problem: Now the protein APPT, Sfp-like phosphopantetheinyl transferase (PPTase) from Anabaena sp. PCC7120 (protein) MLQHTWLPKPPNLTLLSDEVHLWRIPLDQPESQLQDLAATLSSDELARANRFYFPEHRRRFTAGRGILRSILGGYLGVEPGQVKFDYESRGKPILGDRFAESGLLFNLSHSQNLALCAVNYTRQIGIDLEYLRPTSDLESLAKRFFLPREYELLRSLPDEQKQKIFFRYWTCKEAYLKATGDGIAKLEEIEIALTPTEPAKLQTAPAWSLLELVPDDNCVAAVAVAGFGWQPKFWHY
Solution: 8.4 µM
